All values here come from PubChem BioAssay AID1159580.

Experiment description: chemical genetic growth profiling, strain panel (AID 1159580);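 also: tested at 20 µM; growth read once vehicle control cultures reached saturation at 30 °C; 1 = growth at the plate median or of vehicle wells; lower values mean less growth of the strain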
Recorded conditions: S. cerevisiae deletion strains, growth OD, locus YMR231W, strain pep5, active compounds read low
Screen size: about 5,500 compounds; about 2,000 (36%) were called active. Roughly 18% stayed inconclusive and do not appear here. This is one part of the list.
hey, just use YES if measured normalized growth is less than 1, otherwise NO

>>> assigned_class("CC(=O)Oc1ccc2c(c1)CCC1C2CC[C@]2(C)C(=O)CCC12 (some centres undefined)")
"YES"
>>> assigned_class("Clc1ccc(COC(Cn2ccnc2)c2ccc(Cl)cc2Cl)c(Cl)c1 (centres undefined)")
"YES"
>>> assigned_class("Cc1cc(CC(=O)O)n(C)c1C(=O)c1ccc(Cl)cc1")
"NO"
>>> assigned_class("COc1ccnc(CS(=O)c2nc3ccc(OC(F)F)cc3[nH]2)c1OC (centres undefined)")
"NO"
>>> assigned_class("CC1(C)N([O-])[N+](=O)C1(C)Br (centres undefined)")
"YES"
>>> assigned_class("COc1cc(C)c2c(=O)cc(-c3ccccc3)oc2c1")
"YES"
>>> assigned_class("Clc1ccc(C(Cn2ccnc2)OCc2ccsc2Cl)c(Cl)c1 (centres undefined)")
"YES"
>>> assigned_class("O=C1CCCN1CC#CCN1CCCC1")
"NO"

---

Experiment description: chemical genetic growth profiling, strain panel (AID 1159580);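 also: tested at 20 µM; growth read once vehicle control cultures reached saturation at 30 °C; 1 = growth at the plate median or of vehicle wells; lower values mean less growth of the strain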
Recorded conditions: S. cerevisiae deletion strains, growth OD, locus YJL095W, strain BCK1 (second series), active compounds read low
Screen size: about 5,500 compounds; about 2,000 (36%) were called active. Roughly 18% stayed inconclusive and do not appear here. Some of the results follow.
Overview of recorded normalized growth for various molecules
Measure name: normalized growth

>>> result_value("NC(=O)NC1NC(=O)NC1=O (stereo not given)")
1
>>> result_value("C=C1C(=O)[C@]23[C@H](O)[C@H]1CC[C@H]2[C@@]12CO[C@]3(O)[C@H](O)[C@@H]1C(C)(C)CC[C@@H]2O")
0.99
>>> result_value("CCCCCCCCCCCCCC(=O)OC1C(C)C2(O)C(C=C(CO)CC3(O)C(=O)C(C)=CC32)C2C(C)(C)C12OC(C)=O (stereo not given)")
0.99
>>> result_value("COc1ccc(-c2oc3cc(OC)c(OC)c(OC)c3c(=O)c2OC)cc1OC")
0.987
>>> result_value("C=C[C@@]1(C)CC(=O)[C@@]2(O)[C@](C)(O1)[C@@H](OC(C)=O)[C@@H](O)C1C(C)(C)CC[C@H](O)[C@@]12C (stereo not given in full)")
0.978
>>> result_value("COC(=O)[C@@H]1OC(=O)C2OC23[C@@]1(C)CCC1[C@@]2(C)CCC(=O)C(C)(C)C2C[C@@H](OC(C)=O)[C@]13C (stereo not given in full)")
1.01
>>> result_value("NC1(C(=O)O)CC1")
1.02
>>> result_value("NC1(C(=O)O)CCCC1")
1.01
>>> result_value("CC(=O)OC/C=C(\\C)CC/C=C(\\C)CC/C=C(\\C)CC/C=C(\\C)CC/C=C(\\C)CC/C=C(\\C)CC/C=C(\\C)CC/C=C(\\C)CCC=C(C)C")
0.987
>>> result_value("C=CCS(=O)C[C@H](N)C(=O)O (stereo not given in full)")
0.998

---

Experiment description: chemical genetic growth profiling, strain panel (AID 1159580);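 also: tested at 20 µM; growth read once vehicle control cultures reached saturation at 30 °C; 1 = growth at the plate median or of vehicle wells; lower values mean less growth of the strain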
Recorded conditions: S. cerevisiae deletion strains, growth OD, locus YIL066C, strain RNR3, active compounds read low
Among all 5,500 compounds or so, about 2,000 (36%) were called active. Inconclusive results (about 18%) are left out. This is one part of the list. Where a SMILES comes first, the peptide text is derived from it.
Measure name: normalized growth

>>> result_value("CC1[C@H](C)OC(=O)CC(O)CC(O)CC(O)CCC(O)C(O)C[C@]2(O)CC(O)C(C(=O)O)C(CC(OC3O[C@H](C)[C@@H](O)[C@H](N)[C@@H]3O)/C=C/C=C/C=C/C=C/CC/C=C/C=C/[C@H](C)[C@H]1O)O2 (stereo partly specified)")
0.51
>>> result_value("CC(=O)Oc1ccc2c(c1)CCC1C2CC[C@]2(C)C(=O)CCC12 (stereo partly specified)")
0.944
>>> result_value("COc1cc(OC)c2c(=O)cc(-c3ccccc3)oc2c1")
0.912
>>> result_value("COP(=S)(OC)Oc1ccc([N+](=O)[O-])cc1")
0.967
>>> result_value("CC(=O)OC1CC(OC(C)=O)C2(C)C(CC(OC(C)=O)C3(C)C2CCC2(C)C(c4ccoc4)OC(=O)C4OC423)C1(C)C (stereo unspecified)")
0.986
>>> result_value("CC(=O)O[C@@H]1CC2C(C)(C)C(=O)C3OC3[C@]2(C)C2CC[C@@]3(C)[C@H](c4ccoc4)OC(=O)C4OC43[C@@]21C (stereo partly specified)")
1.01
>>> result_value("CN(C)CCC(c1ccccc1)c1ccccn1 (stereo unspecified)")
1.01
>>> result_value("CC1(C)C(=O)[C@@H]2O[C@@H]2[C@@]2(C)C1C[C@@H](O)[C@]1(C)C2CC[C@@]2(C)[C@H](c3ccoc3)OC(=O)C3OC321 (stereo partly specified)")
1.01
>>> result_value("C[C@]12CCC3c4ccc(O)cc4CCC3C1CCC2=O (stereo partly specified)")
0.982
>>> result_value("Clc1ccc(COC(Cn2ccnc2)c2ccc(Cl)cc2Cl)c(Cl)c1 (stereo unspecified)")
0.0442
>>> result_value("CC12CCC3C(=CCc4cc(O)ccc43)C1CCC2=O (stereo unspecified)")
0.881
>>> result_value("CC(=O)N[C@@H](CC(=O)O)C(=O)N[C@@H](CCC(=O)O)C(=O)O (Ac-Asp-Glu-OH)")
1.01
>>> result_value("CC(=O)O[C@@H]1CC2C(C)(C)[C@H](O)CC[C@]2(C)C2CC[C@@]3(C)[C@H](c4ccoc4)OC(=O)C4OC43[C@@]21C (stereo partly specified)")
0.973
>>> result_value("CCCn1c(=O)c2[nH]c(C3CCCC3)nc2n(CCC)c1=O")
0.972
>>> result_value("CC(=O)O[C@@H]1CC2C(C)(C)[C@@H](O)CC[C@]2(C)C2CC[C@@]3(C)[C@H](c4ccoc4)OC(=O)[C@H]4O[C@]43[C@@]21C (stereo partly specified)")
0.967
>>> result_value("CC(=O)O[C@@H]1CC2C(C)(C)[C@H](O)CC[C@]2(C)C2CC[C@@]3(C)[C@H](c4ccoc4)OC(=O)[C@H]4O[C@]43[C@@]21C (stereo partly specified)")
0.984
